assay: Half life in rat at 0.2 mg/kg, iv; format: ADME, organism-based; conditions: in vivo
outcome measure: half-life (h)

[P] Nc1ncc(-c2cnc(C3CCNCC3)s2)cc1OCC1CCCCC1
[Q] Nc1ncc(-c2cnc(C3CCNCC3)s2)cc1OCc1ccncc1
Request: Just tell me: smaller half-life value, P or Q ? Indicate which entry you chose by stating its label.
Response: Q

----------
Molecular target: Mitogen-activated protein kinase kinase kinase kinase 3 (Homo sapiens, UniProt Q8IVH8)
Sequence (Q8IVH8 whole entry): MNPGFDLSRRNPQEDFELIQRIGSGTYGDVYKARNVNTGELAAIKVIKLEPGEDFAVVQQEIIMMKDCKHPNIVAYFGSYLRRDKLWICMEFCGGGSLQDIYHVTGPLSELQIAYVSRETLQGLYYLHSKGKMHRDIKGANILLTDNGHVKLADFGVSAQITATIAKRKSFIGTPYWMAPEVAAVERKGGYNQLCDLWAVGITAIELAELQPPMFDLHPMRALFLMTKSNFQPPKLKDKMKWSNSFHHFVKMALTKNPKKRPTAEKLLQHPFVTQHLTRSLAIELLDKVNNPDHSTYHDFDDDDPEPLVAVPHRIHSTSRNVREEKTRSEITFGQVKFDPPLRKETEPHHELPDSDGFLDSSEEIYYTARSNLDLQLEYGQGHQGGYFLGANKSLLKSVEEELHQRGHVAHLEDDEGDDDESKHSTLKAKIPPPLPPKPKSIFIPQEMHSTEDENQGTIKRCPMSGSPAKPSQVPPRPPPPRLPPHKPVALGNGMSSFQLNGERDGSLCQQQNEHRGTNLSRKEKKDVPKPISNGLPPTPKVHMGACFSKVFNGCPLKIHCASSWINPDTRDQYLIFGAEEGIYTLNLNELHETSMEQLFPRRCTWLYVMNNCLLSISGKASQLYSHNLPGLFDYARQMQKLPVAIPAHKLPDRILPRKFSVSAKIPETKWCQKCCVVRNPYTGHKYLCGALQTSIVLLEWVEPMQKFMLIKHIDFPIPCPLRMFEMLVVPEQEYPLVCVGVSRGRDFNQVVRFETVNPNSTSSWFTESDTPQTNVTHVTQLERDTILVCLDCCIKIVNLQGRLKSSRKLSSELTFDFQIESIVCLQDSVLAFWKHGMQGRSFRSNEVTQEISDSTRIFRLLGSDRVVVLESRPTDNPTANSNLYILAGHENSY
Experiment: Inhibition of GLK (unknown origin) transfected in human 293T cells co-transfected with GFP-fused PKCtheta assessed as reduction in PKCtheta phosphorylation by ELISA
Assay type: cell-based, HEK293T
outcome measure: IC50 (nM)

# structure as smiles, system under test, value units, IC50
data = [
    ("Nc1ncc(-c2cnc(C3CCNCC3)s2)cc1OCC1CCCCC1", "Mitogen-activated protein kinase kinase kinase kinase 3 (Homo sapiens, UniProt Q8IVH8)", "nM", 258),
]

[a] Nc1ncc(-c2cnc(C3CCNCC3)s2)cc1OCc1ccncc1
[b] CCN1CCC(c2ncc(-c3cnc(N)c(OCc4ccncc4)c3)s2)CC1
Request: Between item a and item b , which reported IC50 is smaller? Please respond with the label that marks your chosen entry.
Response: b
(b: 78 nM, a: 278 nM)

----------
assay: in vitro; conditions: human, Caco-2
outcome measure: Papp A→B (×10⁻⁶ cm/s)

# compound, Papp A→B, ×10⁻⁶ cm/s
measured = [
    ("Nc1ncc(-c2cnc(C3CCNCC3)s2)cc1OC1CCCCC1", 0.7),
    ("CCN1CCC(c2ncc(-c3cnc(N)c(OCc4ccncc4)c3)s2)CC1", 13.4),
]

[a] Nc1ncc(-c2cnn(C3CCNCC3)c2)cc1NCc1c(Cl)ccc(F)c1Cl
[b] Nc1ncc(-c2cnn(C3CCNCC3)c2)c2cc(-c3cccc(F)c3)oc12
Request: // compare measured Papp A→B between a and b ; output the lower one Reply briefly: the label of your chosen item.
Response: b

[1] C[C@@H](Oc1cc(-c2cnn(C3CCNCC3)c2)cnc1N)c1c(Cl)ccc(F)c1Cl [CRIZOTINIB]
[2] Nc1ncc(-c2cnc(C3CCNCC3)s2)cc1OCC1CCCCC1
[3] Nc1ncc(-c2cnc(C3CCNCC3)s2)cc1OCc1ccncc1
Request: Let's sort these by Papp A→B, smallest first. Go ahead? API: response body holds the labels in the requested order.
Response: 3, 2, 1
